B1: glmS ribozyme (parent)
chain: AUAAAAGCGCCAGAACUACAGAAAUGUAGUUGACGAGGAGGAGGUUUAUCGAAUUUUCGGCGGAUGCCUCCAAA

Variants of: B1
protocol summary: kcat; higher = faster cleavage; RNA array
reported conditions: with glucosamine-6-phosphate
This sample holds only a part of the variants without activity.
Below is a list of entries, each paired with its recorded kcat value.
Express your answer in s⁻¹, writing the number without its unit.

Look over these answered cases.
C16A U54G ... 0.00103
A42G U65A ... 0.00459
C10U C68G ... 2.34e-05
A12C C68A ... 2.22e-05
U54C C67G ... 0.000821

Enquiry: For the variant G13U U56A C67U , what kcat is on record?
Return: 0.000254

Enquiry: One more variant: A64U C70G
Return: 1.26e-05

Enquiry: One more variant: U49G A52U
Return: 1.85e-05

Enquiry: One more variant: A33G C67U
Return: 2.01e-05

Enquiry: One more variant: A6C A14G
Return: 0.000252

Enquiry: One more variant: U46G G66U C67U
Return: 0.000249
